# system name: D(2) dopamine receptor (Rattus norvegicus, UniProt P61169)
# Sequence (P61169 whole entry): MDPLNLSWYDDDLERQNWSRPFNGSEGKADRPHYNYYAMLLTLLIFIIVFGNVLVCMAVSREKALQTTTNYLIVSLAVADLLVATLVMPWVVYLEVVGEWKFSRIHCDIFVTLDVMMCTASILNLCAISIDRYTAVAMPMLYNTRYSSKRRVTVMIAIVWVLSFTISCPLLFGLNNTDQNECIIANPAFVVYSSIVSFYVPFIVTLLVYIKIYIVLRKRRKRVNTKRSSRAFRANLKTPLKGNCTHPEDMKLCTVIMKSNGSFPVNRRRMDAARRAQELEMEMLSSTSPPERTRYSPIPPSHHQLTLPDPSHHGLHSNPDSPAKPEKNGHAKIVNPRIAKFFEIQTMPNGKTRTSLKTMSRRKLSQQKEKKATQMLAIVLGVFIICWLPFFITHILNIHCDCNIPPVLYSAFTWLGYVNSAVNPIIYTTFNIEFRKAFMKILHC
# run description: Concentration required to inhibit 50% dopamine receptor D2 in a cell free homogenate of intermediate lobe of pituitary gland
Entries and their log10 EC50
All values: log10 EC50 [µM].

# return recorded log10 EC50 for input NC[C@@H]1OC(c2ccccc2)Cc2c1ccc(O)c2O (stereo partly specified)
0.59

Supply reported log10 EC50 belonging to this compound: NC[C@@H]1OC(c2ccc(Br)cc2)Cc2c1ccc(O)c2O (stereo partly specified)
-0.45

Note down log10 EC50 recorded for `CC[C@@H]1Cc2c(ccc(O)c2O)[C@H](CN)O1`
1.03

Supply log10 EC50 value. Item: NC[C@@H]1OC(COCc2ccccc2)Cc2c1ccc(O)c2O (stereo partly specified)
-0.69

Let me know recorded log10 EC50 for `NC[C@@H]1OC2(CCCCC2)Cc2c1ccc(O)c2O` , thanks.
0.82

Using the record for C#CCC1Cc2c(ccc(O)c2O)[C@H](CN)O1 (stereo partly specified) , state its measured log10 EC50.
-0.54

Identify measured log10 EC50 associated with NC[C@@H]1OC(c2cccc(O)c2)Cc2c1ccc(O)c2O (stereo partly specified)
-0.72

Fill in reported log10 EC50 for this entry: CCCCC1Cc2c(ccc(O)c2O)[C@H](CN)O1 (stereo partly specified)
-0.44

Note log10 EC50 for the compound shown: `CC[C@H]1Cc2c(ccc(O)c2O)[C@H](CN)O1`
0.71

Please give measured log10 EC50 of the following entry: NC[C@@H]1OC(C2CCCCCCC2)Cc2c1ccc(O)c2O (stereo partly specified)
-0.12

Please list log10 EC50 recorded for the compound NC[C@@H]1OC(CC2CCCC2)Cc2c1ccc(O)c2O (stereo partly specified)
-0.37

Supply log10 EC50 value. Item: CCCCCCC1Cc2c(ccc(O)c2O)[C@H](CN)O1 (stereo partly specified)
-0.11

Note down log10 EC50 recorded for NC[C@@H]1OC(C2CCCCC2)Cc2c1ccc(O)c2O (stereo partly specified)
0.85

Please give the documented log10 EC50 of `NC[C@H]1O[C@@H](c2ccccc2)Cc2c1ccc(O)c2O`
0.45

Please give measured log10 EC50 of the following entry: `NC[C@@H]1OCCc2c1ccc(O)c2O`
0.45

###

# system name: D(1A) dopamine receptor (Rattus norvegicus)
# run description: Binding affinity using [125 I] SCH 23982 radioligand competitive binding assay on dopamine receptor D1
Below, each of the molecules is paired with its reported pKi value.
As a rule, pKi stands for the negative log10 of the concentration, concentration in M.

NC[C@@H]1OC(c2ccc(I)cc2)Cc2c1ccc(O)c2O (some centres undefined); 7.86
NC[C@@H]1OC2(CCCCC2)Cc2c1ccc(O)c2O; 6.32
NC[C@@H]1OC(c2cccc(O)c2)Cc2c1ccc(O)c2O (some centres undefined); 9.31

Now turn to the next molecule.
Give recorded pKi. CNC[C@@H]1OC(C2CCCCC2)Cc2c1ccc(O)c2O (some centres undefined)
7.85

###

# system name: D(1A) dopamine receptor (Rattus norvegicus, UniProt P18901)
# Sequence (P18901 whole entry): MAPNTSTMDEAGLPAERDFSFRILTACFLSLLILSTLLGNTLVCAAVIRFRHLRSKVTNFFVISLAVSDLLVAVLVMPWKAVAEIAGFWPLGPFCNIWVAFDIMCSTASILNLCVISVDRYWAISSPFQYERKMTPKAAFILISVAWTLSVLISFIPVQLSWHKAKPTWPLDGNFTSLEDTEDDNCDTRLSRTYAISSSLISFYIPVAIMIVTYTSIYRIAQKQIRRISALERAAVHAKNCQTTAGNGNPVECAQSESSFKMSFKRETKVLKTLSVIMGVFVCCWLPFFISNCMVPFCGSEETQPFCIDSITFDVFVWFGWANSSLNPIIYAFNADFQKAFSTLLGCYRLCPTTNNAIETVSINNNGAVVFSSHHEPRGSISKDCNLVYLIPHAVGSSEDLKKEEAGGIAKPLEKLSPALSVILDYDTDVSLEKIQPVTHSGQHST
# run description: Inhibition of Dopamine receptor D1 activity by functional cyclase assay using cell free homogenate of rat striatum
So basically, if EC50 comes in under 20 nM it's Condition met, and if it's 20 nM or more it's Condition not met.

Field: example entries. Status: answers known.
NC[C@@H]1OC(CCc2ccccc2)Cc2c1ccc(O)c2O (stereo partly specified); Condition met
CCCCCCC1Cc2c(ccc(O)c2O)[C@H](CN)O1 (stereo partly specified); Condition not met
CC(C)(C)C1Cc2c(ccc(O)c2O)[C@H](CN)O1 (stereo partly specified); Condition not met
NC[C@@H]1OC(C2CCCCC2)Cc2c1ccc(O)c2O (stereo partly specified); Condition met
NC[C@@H]1OC(COc2ccccc2)Cc2c1ccc(O)c2O (stereo partly specified); Condition not met

# evaluate next
Hi there! Is EC50 for C=CCNC[C@@H]1OC(C2CCCCC2)Cc2c1ccc(O)c2O (stereo partly specified) below 20 nM, do you know?
Condition not met

Data provenance: ChEMBL document CHEMBL1125832
